# TESTED_ON: mitochondrial complex III (Mus musculus)
# Construct: the supernatant containing the mitochondria was pelleted at 14,000 g; endogenous in cells; host or cells: C2C12 cells, mitochondrial fraction
# PROTOCOL_DESCRIPTION: Complex III enzyme activity in mitochondrial fractions of C2C12 cells (cytochrome c reduction at 550 nm)
# Format: biochemical
# DETAILS: compound at 100 μM; background by antimycin A (2.5 μM); n = 3 independent experiments
Entries annotated with measured complex III activity (% of control) Mean (SEM)

As a guide, the following entries are already answered.
molecule="CCC(C)(C)C(=O)O[C@H]1C[C@@H](C)C=C2C=C[C@H](C)[C@H](CC[C@@H](O)C[C@@H](O)CC(=O)NO)[C@H]21 [simvastatin hydroxamic acid]" value_measured="68.59 (5.73) % of control"
molecule="CC(C)c1nc(N(C)S(C)(=O)=O)nc(-c2ccc(F)cc2)c1/C=C/[C@@H](O)C[C@@H](O)CC(=O)NO [rosuvastatin hydroxamic acid]" value_measured="90.25 (7.98) % of control"

q: Report complex III activity (% of control) Mean (SEM) for CC(C)c1c(C(=O)Nc2ccccc2)c(-c2ccccc2)c(-c2ccc(F)cc2)n1CC[C@@H]1C[C@H](O)CC(=O)O1 [atorvastatin lactone, reference compound] tested on mitochondrial complex III (Mus musculus).
a: 80.98 (3.75) % of control

###

Below, each entry is listed with its recorded HMGR activity (% of control) Mean (SEM).
# TESTED_ON: catalytic domain of the human HMG-CoA reductase (Homo sapiens)
# Construct: containing the catalytic domain of the human HMG-CoA reductase; purchased Sigma-Aldrich CS-1090
# Sequence (P04035 426-888 limits assumed): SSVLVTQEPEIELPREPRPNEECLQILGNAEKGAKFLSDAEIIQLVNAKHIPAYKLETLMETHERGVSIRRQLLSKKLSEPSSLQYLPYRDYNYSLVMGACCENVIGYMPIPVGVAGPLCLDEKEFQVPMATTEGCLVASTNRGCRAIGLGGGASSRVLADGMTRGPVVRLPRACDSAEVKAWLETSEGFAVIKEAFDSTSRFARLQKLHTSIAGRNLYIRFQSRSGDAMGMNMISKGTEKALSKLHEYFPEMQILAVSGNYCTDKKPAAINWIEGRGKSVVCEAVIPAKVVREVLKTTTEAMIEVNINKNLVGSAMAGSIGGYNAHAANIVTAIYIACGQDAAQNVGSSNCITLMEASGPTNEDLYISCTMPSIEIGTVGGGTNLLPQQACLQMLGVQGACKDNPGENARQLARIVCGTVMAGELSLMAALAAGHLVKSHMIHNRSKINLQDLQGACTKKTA
# PROTOCOL_DESCRIPTION: HMG-CoA reductase activity and inhibition assay (Sigma CS-1090 kit, NADPH oxidation at 340 nm)
# Format: biochemical
# DETAILS: compound at 300 nM; n = 3 independent experiments
Marks after values point to notes of the source that are not given here.

Some molecules with known HMGR activity (% of control) Mean (SEM) results, for comparison:
molecule="CNC(=O)C[C@H](O)C[C@H](O)/C=C/c1c(-c2ccc(F)cc2)nc(N(C)S(C)(=O)=O)nc1C(C)C [rosuvastatin methylamide]" observation_type="HMGR activity (% of control) Mean (SEM)" value_measured="82.82 (12.67) % of control"
molecule="CC[C@H](C)C(=O)O[C@H]1C[C@@H](C)C=C2C=C[C@H](C)[C@H](CC[C@@H](O)C[C@@H](O)CC(N)=O)[C@H]21 [lovastatin amide]" observation_type="HMGR activity (% of control) Mean (SEM)" value_measured="102.30 (10.00) % of control"
molecule="CC(C)c1nc(N(C)S(C)(=O)=O)nc(-c2ccc(F)cc2)c1/C=C/[C@@H](O)C[C@@H](O)CC(=O)NO [rosuvastatin hydroxamic acid]" observation_type="HMGR activity (% of control) Mean (SEM)" value_measured="72.81 (9.03) % of control"
molecule=CCC(C)(C)C(=O)O[C@H]1C[C@@H](C)C=C2C=C[C@H](C)[C@H](CC[C@@H](O)C[C@@H](O)CC#N)[C@H]21 observation_type="HMGR activity (% of control) Mean (SEM)" value_measured="85.05 (10.36) % of control"
molecule=CC(C)c1nc(N(C)S(C)(=O)=O)nc(-c2ccc(F)cc2)c1/C=C/[C@@H](O)C[C@@H](O)c1nnn[nH]1 observation_type="HMGR activity (% of control) Mean (SEM)" value_measured="86.12 (5.73) % of control"

q: Entry CC(C)c1nc(N(C)S(C)(=O)=O)nc(-c2ccc(F)cc2)c1/C=C/[C@@H](O)C[C@@H](O)CC(=O)N(C)C [rosuvastatin dimethylamide] : reported HMGR activity (% of control) Mean (SEM) = ?
a: 91.35 (15.32) % of control

q: Thanks! And CC(C)c1c(C(=O)Nc2ccccc2)c(-c2ccccc2)c(-c2ccc(F)cc2)n1CC[C@@H](O)C[C@@H](O)CC(=O)NO [atorvastatin hydroxamic acid] ?
a: 60.87 (4.50) % of control

q: // query: CCC(C)(C)C(=O)O[C@H]1C[C@@H](C)C=C2C=C[C@H](C)[C@H](CC[C@@H](O)C[C@@H](O)CC(=O)NC)[C@H]21 [simvastatin methylamide]
a: 92.40 (8.84) % of control

q: // query: CC(C)c1c(C(=O)Nc2ccccc2)c(-c2ccccc2)c(-c2ccc(F)cc2)n1CC[C@@H](O)C[C@@H](O)CC(N)=O [atorvastatin amide]
a: 97.37 (3.89) % of control

q: # repeat for CCC(C)(C)C(=O)O[C@H]1C[C@@H](C)C=C2C=C[C@H](C)[C@H](CC[C@@H](O)C[C@@H](O)CC(=O)NO)[C@H]21 [simvastatin hydroxamic acid]
a: 38.83 (5.19) % of control

q: Subsequent entry: CC(C)c1nc(N(C)S(C)(=O)=O)nc(-c2ccc(F)cc2)c1/C=C/[C@@H](O)C[C@@H](O)c1nc(=O)o[nH]1
a: 100.30 (7.82)^a % of control

q: Queued: CCC(C)(C)C(=O)O[C@H]1C[C@@H](C)C=C2C=C[C@H](C)[C@H](CC[C@@H](O)C[C@@H](O)Cc3nnn[nH]3)[C@H]21
a: 72.43 (4.97) % of control

Just for reference, patent US20190038588A1 is where these values come from.
